- Tested on: NCI-H522
- experiment.summary: NCI tumour cell line growth inhibition, 48 h
The source made the active and inactive calls. No stated cut-off is given here; in the data, active = GI50 up to about 1.1 µM and inactive = higher.
Catalogue of compounds with associated GI50

>  <compound>
O=C(O)c1nc2ccccc2nc1Nc1ccc(F)cc1

>  <reported.value>
25.1 µM (inactive)

$$$$
>  <compound>
N=C1CCCC1C(=S)SCCC(N)=O (stereo unspecified)

>  <reported.value>
> 100 µM (inactive)

$$$$
>  <compound>
COc1cc(/C=C2\N=C(c3ccccc3)N(c3nc4c(OC)ccc(OC)c4s3)C2=O)cc(OC)c1OC

>  <reported.value>
35.7 µM (inactive)

$$$$
>  <compound>
CC(C)=CC(O)C/C(C)=C/CC/C(C)=C/CCC1(C)C(CCCO)/C(=C(/C)C=O)CCC1(C)O (stereo unspecified)

>  <reported.value>
39.7 µM (inactive)

$$$$

In one line, give reported GI50 of the entry `COC(OC)(c1ccccc1)C(I)I` .
2.5 µM (inactive)

In one line, give reported GI50 of the entry Cc1cc2nn(C3CCCO3)nc2cc1C (stereo unspecified) .
> 100 µM (inactive)

In one line, give reported GI50 of the entry O=C1C2=C(c3ccccc31)C(c1ccccc1Cl)N1C(=O)CSC1=N2 (stereo unspecified) .
23.8 µM (inactive)

In one line, give reported GI50 of the entry `O=C(O)CN1CCN(CC(=O)O)CCN(CC(=O)O)CC1` .
5.22 µM (inactive)

* * *

- System: SK-MEL-28
- experiment.summary: NCI tumour cell line growth inhibition, 48 h
Calls of active or inactive are those of the source. Cut-off read from the data, not from the text of the source: active = GI50 up to about 1.1 µM and inactive = higher.
attribute.measured: GI50

The examples below pair each entry with its known result.
>  <compound>
O=c1c2ccccc2n2cnc3ccc(NCCNCCO)c1c32

>  <GI50>
3.18 µM (inactive)

$$$$
>  <compound>
COC(OC)(c1ccccc1)C(I)I

>  <GI50>
16.1 µM (inactive)

$$$$
>  <compound>
CC12Cc3cc4c(cc3C1(c1ccc([N+](=O)[O-])cc1)OCCO2)OCO4 (stereo not given)

>  <GI50>
> 100 µM (inactive)

$$$$
>  <compound>
COc1cc2ccc(/C(C)=N/OC(C)=O)cc2cc1OC

>  <GI50>
> 100 µM (inactive)

$$$$
>  <compound>
C=CCNC(=O)CN(CC(=O)OC)C1CCCCC1N(CC(=O)OC)CC(=O)OC (stereo not given)

>  <GI50>
> 100 µM (inactive)

$$$$

In one line, give reported GI50 of the entry CC(C)(C)OC(=O)NC(Cc1c[nH]cn1)C(=O)N1CCCC1C(N)=O (stereo not given) .
> 100 µM (inactive)

In one line, give reported GI50 of the entry `COC(=O)C1=C(C)NC(C)=C(C(=O)OC)C1c1nc2sccn2c1[N+](=O)[O-]` .
> 100 µM (inactive)

In one line, give reported GI50 of the entry `COc1ccc(-c2oc(/C=N/NC(N)=S)c([N+](=O)[O-])c2-c2ccc(OC)c(OC)c2)cc1OC` .
23.9 µM (inactive)

In one line, give reported GI50 of the entry `COC(=O)[C@H](C)[C@@H]1CC[C@](C)(CCC2=C(C)CCCC2(C)C)OO1` .
> 25 µM (inactive)

In one line, give reported GI50 of the entry CC1=C2CC[C@@]3(C)C(=CCC3O)C2(C)CCC1=O (stereo not given in full) .
> 100 µM (inactive)
